Just for reference, BigSolDB 2.1 is where these values come from.

- CONDITION PARAMETERS: in n-propanol, 308.15 K

| COMPOUND | solubility (mole fraction) |
| --- | --- |
| O=C(O)C(O)c1ccccc1 (racemic) | 0.252 |

* * *

- CONDITION PARAMETERS: in methanol, 318.15 K

| COMPOUND | solubility (mole fraction) |
| --- | --- |
| O=C(O)C(O)c1ccccc1 (racemic) | 0.323 |

* * *

- CONDITION PARAMETERS: in n-propanol, 328.15 K
OUTCOME MEASURE: solubility (mole fraction)

| COMPOUND | OUTCOME MEASURE | MEAS VALUE |
| --- | --- | --- |
| O=C(O)C(O)c1ccccc1 (racemic) | solubility (mole fraction) | 0.347 |

* * *

- CONDITION PARAMETERS: in methanol, 288.15 K

| COMPOUND | solubility (mole fraction) |
| --- | --- |
| O=C(O)C(O)c1ccccc1 (racemic) | 0.243 |

* * *

- CONDITION PARAMETERS: in methanol, 293.15 K
OUTCOME MEASURE: solubility (mole fraction)

| COMPOUND | OUTCOME MEASURE | MEAS VALUE |
| --- | --- | --- |
| O=C(O)C(O)c1ccccc1 (racemic) | solubility (mole fraction) | 0.256 |

* * *

- CONDITION PARAMETERS: in n-propanol, 338.15 K
OUTCOME MEASURE: solubility (mole fraction)

| COMPOUND | OUTCOME MEASURE | MEAS VALUE |
| --- | --- | --- |
| O=C(O)C(O)c1ccccc1 (racemic) | solubility (mole fraction) | 0.39 |

* * *

- CONDITION PARAMETERS: in ethanol, 308.25 K

| COMPOUND | solubility (mole fraction) |
| --- | --- |
| O=C(O)C(O)c1ccccc1 (racemic) | 0.292 |

* * *

- CONDITION PARAMETERS: in n-propanol, 323.15 K

| COMPOUND | solubility (mole fraction) |
| --- | --- |
| O=C(O)C(O)c1ccccc1 (racemic) | 0.325 |

* * *

- CONDITION PARAMETERS: in methanol, 283.15 K

| COMPOUND | solubility (mole fraction) |
| --- | --- |
| O=C(O)C(O)c1ccccc1 (racemic) | 0.236 |

* * *

- CONDITION PARAMETERS: in n-propanol, 298.15 K
OUTCOME MEASURE: solubility (mole fraction)

| MOLECULE | MEAS VALUE |
| --- | --- |
| O=C(O)C(O)c1ccccc1 (racemic) | 0.213 |

* * *

- CONDITION PARAMETERS: in isopropanol, 338.15 K

| MOLECULE | solubility (mole fraction) |
| --- | --- |
| O=C(O)C(O)c1ccccc1 (racemic) | 0.41 |

* * *

- CONDITION PARAMETERS: in isopropanol, 313.15 K
OUTCOME MEASURE: solubility (mole fraction)

| MOLECULE | MEAS VALUE |
| --- | --- |
| O=C(O)C(O)c1ccccc1 (racemic) | 0.294 |

* * *

- CONDITION PARAMETERS: in methanol, 304.65 K
OUTCOME MEASURE: solubility (mole fraction)

| COMPOUND | OUTCOME MEASURE | MEAS VALUE |
| --- | --- | --- |
| O=C(O)C(O)c1ccccc1 (racemic) | solubility (mole fraction) | 0.281 |
